Test system: PC12 cells
Format: cell-based
Settings: 72 h
Method: PC12 cells were stored in 75 cm^2 culture flasks on DMEM containing 5% bovine foetal serum and 10% horse serum, with 50 μg/ml gentamicin. Cells were incubated at 37° C. in 5% CO2. […] Cell survival and proliferation was determined using the Promega non-radioactive cytotoxicity proliferation assay, Cell Titer 96, based in the conversion of 3-(4,5-dimethylthiazole-2-yl)-2,5-diphenyltetrazolium bromide (MTT) in to a spectrophotometrically detectable product. […]
Where no end group is shown, it is not given here.
measuredMetric: IC50 (µM)

sequenceentry="STDFKPFAI [Compound A226, STDFKPFAI]" measuredmetric=IC50 resultnumber=4.87

====

Items are presented alongside their recorded IC50.
system: PC12 cells; format: cell-based; settings: differentiated PC12 cells, 72 h incubation, MTT; read-out: IC50 during the NGF deprivation induced neuronal death
measuredMetric: IC50 (µM)

sequenceentry="HGSKFDLEFG [Compound A222, L-amino acid peptide with internal side-chain cycle, SEC; ID NO: 2]" resultnumber=2.03
sequenceentry="HAKPGGIDPEQ [Compound A229, L-amino acid peptide with internal side-chain cycle, SEC; ID NO: 9]" resultnumber=3.41
sequenceentry="SSDFKLYWG [Compound A224, L-amino acid peptide with internal side-chain cycle, SEC; ID NO: 4]" resultnumber=2.37
sequenceentry="GLEFKLLHQ [Compound A238, L-amino acid peptide with internal side-chain cycle, SEC; ID NO: 18]" resultnumber=2.04
sequenceentry="HSKGYDLDH [Compound A227, L-amino acid peptide with internal side-chain cycle, SEC; ID NO: 7]" resultnumber=3.06
sequenceentry="GKFDSPEHQ [Compound A230]" resultnumber=4.06
sequenceentry="HKGIDSPEQH [Compound A232]" resultnumber=4.89
sequenceentry="GGGKFWDIPHH [Compound A231, L-amino acid peptide with internal side-chain cycle, SEC; ID NO: 11]" resultnumber=4
sequenceentry="HCKFDLDWH [Compound A223, L-amino acid peptide with internal side-chain cycle, SEC; ID NO: 3]" resultnumber=3.12
sequenceentry="GEGYKLDERSQ [Compound A236, L-amino acid peptide with internal side-chain cycle, SEC; ID NO: 16]" resultnumber=3
sequenceentry="GKFGDLSPEHQ [Compound A228, L-amino acid peptide with internal side-chain cycle, SEC; ID NO: 8]" resultnumber=3.99
sequenceentry="GKFDLSPEHQ [Compound A233, L-amino acid peptide with internal side-chain cycle, SEC; ID NO: 13]" resultnumber=5
sequenceentry="GGEAGKLCPPRY [Compound A237, L-amino acid peptide with internal side-chain cycle, SEC; ID NO: 17]" resultnumber=3.33
sequenceentry="GMEAGIKLCHRQ [Compound A235, L-amino acid peptide with internal side-chain cycle, SEC; ID NO: 15]" resultnumber=2.05
sequenceentry="ALDFKPNIP [Compound A225, L-amino acid peptide with internal side-chain cycle, SEC; ID NO: 5]" resultnumber=4.07
sequenceentry="GDAGAKLLSSR [Compound A234]" resultnumber=5.86
